- EXPERIMENTAL SYSTEM: Prostaglandin E synthase (Homo sapiens, UniProt O14684)
- Sequence (O14684 whole entry): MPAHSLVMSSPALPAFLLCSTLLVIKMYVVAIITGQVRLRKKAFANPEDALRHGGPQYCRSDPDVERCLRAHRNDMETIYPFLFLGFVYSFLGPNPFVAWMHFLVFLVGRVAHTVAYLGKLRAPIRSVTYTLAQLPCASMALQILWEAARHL
- PROTOCOL SUMMARY: Inhibition of human mPGES1 in […] assessed as PGE2 level after 24 hrs by ELISA
- Assay type: tissue-based, Blood
- TEST CONTEXT: in the assay text read “by ELISA” for “after 24 hrs by ELISA”
READOUT NAME: IC50 (µM)

>>> print(df.to_string())
                                 mol_smiles                       experimental_system  unit_name  endpoint_value
0  O=C(Nc1ccc(-c2ccc(Cl)c(Cl)c2)cc1)C1=C(O)c2ccccc2S(=O)(=O)N1  Prostaglandin E synthase (Homo sapiens, UniProt O14684)         µM               5

###

- EXPERIMENTAL SYSTEM: Thromboxane-A synthase (Homo sapiens, UniProt P24557)
- Sequence (P24557 whole entry): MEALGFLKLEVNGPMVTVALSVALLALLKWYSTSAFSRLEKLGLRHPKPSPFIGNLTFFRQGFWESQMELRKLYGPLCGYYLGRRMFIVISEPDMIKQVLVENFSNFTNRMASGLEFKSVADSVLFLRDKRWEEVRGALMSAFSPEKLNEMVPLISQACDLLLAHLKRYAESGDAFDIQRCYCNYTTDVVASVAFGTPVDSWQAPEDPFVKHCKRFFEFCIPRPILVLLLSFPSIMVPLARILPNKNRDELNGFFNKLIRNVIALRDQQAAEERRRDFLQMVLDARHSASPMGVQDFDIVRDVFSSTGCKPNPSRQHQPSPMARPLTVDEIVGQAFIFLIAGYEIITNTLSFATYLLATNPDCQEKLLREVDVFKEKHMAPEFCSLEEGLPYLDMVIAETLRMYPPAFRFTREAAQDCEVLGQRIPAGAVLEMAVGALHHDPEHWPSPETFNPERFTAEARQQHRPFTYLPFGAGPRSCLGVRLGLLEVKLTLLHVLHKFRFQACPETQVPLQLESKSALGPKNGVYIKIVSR
- PROTOCOL SUMMARY: Inhibition of human thromboxane A synthase in IL-1-beta-stimulated human RASF cells assessed as TXB2 levels after 50 mins by ELISA
pIC50: −log10 of the molar value.
READOUT NAME: pIC50

>>> print(df.to_string())
                                 mol_smiles  endpoint_value
0  O=C(Nc1ccc(-c2ccc(Cl)c(Cl)c2)cc1)C1=C(O)c2ccccc2S(=O)(=O)N1          < 4.00

###

- EXPERIMENTAL SYSTEM: Prostaglandin G/H synthase 2 (Homo sapiens, UniProt P35354)
- Sequence (P35354 whole entry): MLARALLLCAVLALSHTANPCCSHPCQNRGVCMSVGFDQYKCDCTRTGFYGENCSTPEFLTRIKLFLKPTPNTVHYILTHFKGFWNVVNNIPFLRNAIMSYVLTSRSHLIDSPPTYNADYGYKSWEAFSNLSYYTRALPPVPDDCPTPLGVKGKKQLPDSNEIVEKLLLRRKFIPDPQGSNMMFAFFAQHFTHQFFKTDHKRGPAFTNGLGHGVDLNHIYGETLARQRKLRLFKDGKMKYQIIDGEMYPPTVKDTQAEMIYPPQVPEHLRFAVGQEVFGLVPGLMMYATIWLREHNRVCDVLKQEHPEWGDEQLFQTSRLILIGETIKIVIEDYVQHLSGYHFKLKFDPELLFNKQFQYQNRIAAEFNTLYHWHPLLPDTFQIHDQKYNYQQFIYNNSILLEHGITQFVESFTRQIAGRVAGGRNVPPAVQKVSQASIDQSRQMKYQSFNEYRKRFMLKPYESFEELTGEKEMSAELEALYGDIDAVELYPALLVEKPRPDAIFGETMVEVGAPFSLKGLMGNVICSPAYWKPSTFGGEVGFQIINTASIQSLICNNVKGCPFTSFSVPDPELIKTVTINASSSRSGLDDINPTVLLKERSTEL
- PROTOCOL SUMMARY: Inhibition of human COX2 in IL1-beta treated human FF cells assessed as blockade of SnCl2-mediated PGH2 to PGF2alpha conversion after 50 mins by ELISA
- Assay type: cell-based
pIC50: −log10 of the molar value.
READOUT NAME: pIC50

>>> print(df.to_string())
                                 mol_smiles  readout_name  value_prefix  endpoint_value
0  O=C(Nc1ccc(-c2ccc(Cl)c(Cl)c2)nc1)C1=C(O)c2ccccc2S(=O)(=O)N1         pIC50             =            4.47
1  O=C(Nc1ccc(-c2ccc(Cl)cc2)cc1)C1=C(O)c2ccccc2S(=O)(=O)N1         pIC50             =            4.47
2  Cc1cccc(-c2ccc(NC(=O)C3=C(O)c4ccccc4S(=O)(=O)N3)cc2)c1C         pIC50             =            4.02
3  O=C(Nc1ccc(CCc2ccc(Cl)c(Cl)c2)cc1)C1=C(O)c2ccccc2S(=O)(=O)N1         pIC50             <            4.17
4  O=C(Nc1ccc(-c2ccccc2)cc1)C1=C(O)c2ccccc2S(=O)(=O)N1         pIC50             =            4.03
